Just for reference, patent EP4424303A1 is where these values come from.

Test: Saturation (equilibrium) solubility by shake-flask technique
Assay type: physicochemical
Settings: USP dissolution medium pH 5.5, aqueous buffer, thermodynamic from solid; pH 5.5; 37 °C ± 1 °C; Initial pH 5.49, Final pH 5.25
Where a name gives a salt, the structure may show the parent alone.
Measured Endpoint: solubility (µg/mL)
A number alone suffices; assume µg/mL.

Give its solubility value. Item: COc1cc2nccc(Oc3ccc(NC(=O)NC4CC4)c(Cl)c3)c2cc1C(N)=O [Lenvatinib mesylate]
3

###

Assay: Saturation (equilibrium) solubility by shake-flask technique
Assay type: physicochemical
Details: simulated gastric fluid, thermodynamic from solid; 0.1N HCl; 37 °C ± 1 °C; Initial pH 1.1, Final pH 1.23
Where a name gives a salt, the structure may show the parent alone.
Measured Endpoint: solubility (µg/mL)
A number alone suffices; assume µg/mL.

Give its solubility value. Item: COc1cc2nccc(Oc3ccc(NC(=O)NC4CC4)c(Cl)c3)c2cc1C(N)=O [Lenvatinib mesylate]
1830
